Items are presented alongside their recorded MIC (μM) MHB.
System: planktonic methicillin resistant S. aureus
RUN DESCRIPTION: microbe, parasite or virus in culture
Type: cell-based, Staphylococcus aureus
MEASUREMENT CONDITIONS: planktonic methicillin resistant S. aureus; broth microdilution in Mueller Hinton Broth (MHB); mean of three biological replicates
No end group written: not given here.

SUBSTANCE: IKIIWKALGQVI-NH2 [Peptide 3024, IKIIWKALGQVI]
MIC (μM) MHB: 16 µM

SUBSTANCE: VRLIVAVRIWRR-NH2 [Peptide 1018, VRLIVAVRIWRR, reference compound]
MIC (μM) MHB: 4 µM

SUBSTANCE: VLKIKVKIWVVK-NH2 [Peptide 3007, VLKIKVKIWVVK]
MIC (μM) MHB: 16 µM

SUBSTANCE: VLQIKKVLRLLL-NH2 [Peptide 3011, VLQIKKVLRLLL]
MIC (μM) MHB: 8 µM

SUBSTANCE: IWLRLKVVLKRK-NH2 [Peptide 3006, IWLRLKVVLKRK]
MIC (μM) MHB: 4 µM
